# EXPERIMENTAL CONTEXT: 298.15 K, Pendant drop shape
// reported surface tension liquid-gas per item
Only the number, expressed in mN/m, is required.

Look over these answered cases.
INSERT INTO measurements (given_smiles, recorded_endpoint, unit_abbreviation, result_value) VALUES
  ('BrCCCCCCBr', 'surface tension liquid-gas', 'mN/m', 38.36),
  ('O', 'surface tension liquid-gas', 'mN/m', 72.14),
  ('BrCCBr', 'surface tension liquid-gas', 'mN/m', 38.07),
  ('ClCCCCCl', 'surface tension liquid-gas', 'mN/m', 33.15);

Would you mind telling me what surface tension liquid-gas value was observed for `BrCCCCBr` ?
39.46

Suppose we examine the compound `ClCCCCCCl` ; what surface tension liquid-gas value has been reported?
34.43

Tell me the measured surface tension liquid-gas of `ClCCCCl` , please.
30.77

Recorded surface tension liquid-gas for `BrCCCCCBr` , please?
38.65

Would you kindly share the measured surface tension liquid-gas for `ClCCCl` ?
27.57

Please look up its surface tension liquid-gas: `BrCCCBr`
38.95

Which surface tension liquid-gas reading was recorded for the compound `BrCBr` ?
37.76

Which surface tension liquid-gas value is on record for `CCCCCCO` ?
25.71

So what does the record say about surface tension liquid-gas for `ClCCCCCCCl` ?
34.31

Give the measured surface tension liquid-gas of `CCCCCO` .
24.85
